molecular target: (His)6-SOX11-DBD protein (Homo sapiens, UniProt P35716); construct: Recombinant (His)6-SOX11-DBD protein was immobilized; assay: Surface Plasmon Resonance (SPR) assay; settings: immobilized recombinant (His)6-SOX11-DBD, 25° C., compounds 5-40 μM, mean of three experiments
pKd: −log10 of the molar value.
assayMetric: pKd

Examples with answers:
CC1Sc2ccc(C(=O)Nc3cccc(S(=O)(=O)N4CCOCC4)c3)cc2NC1=O (stereo not drawn): 4.07
CC1Sc2ccc(C(=O)Nc3cccc(S(=O)(=O)NC4CC4)c3)cc2NC1=O (stereo not drawn): 4.01
CCC1Sc2ccc(C(=O)Nc3ccc(S(=O)(=O)Nc4ccccc4)cc3)cc2NC1=O (stereo not drawn): 5.84
CC1Sc2ccc(C(=O)Nc3cccc(S(=O)(=O)Nc4ccc(N)cc4)c3)cc2NC1=O (stereo not drawn): 4.22

[I] Nc1ccccc1CC(=O)Nc1cccc(C(=O)Nc2ccc(S(=O)(=O)Nc3ccccc3)cc2)c1
[II] CC1Sc2ccc(C(=O)Nc3ccc(C(=O)Nc4ccccc4)cc3)cc2NC1=O (stereo not drawn)
[III] O=C(Nc1ccc(S(=O)(=O)Nc2ccccc2)cc1)c1ccc2cncnc2c1
Q: Sort the 3 compounds by pKd; largest first, smallest last. # answer = labels listed in requested order
Result: I, II, III

---

Biological target: (His)6-SOX11-DBD protein (Homo sapiens)
Construct: Recombinant (His)6-SOX11-DBD protein was immobilized
Sequence (P35716 49-117 limits assumed): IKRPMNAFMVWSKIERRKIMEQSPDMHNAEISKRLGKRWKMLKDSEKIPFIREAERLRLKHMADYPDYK
Assay: Surface Plasmon Resonance (SPR) assay
Type: binding
Conditions: immobilized recombinant (His)6-SOX11-DBD, 25° C., compounds 5-40 μM, mean of three experiments
pKd: −log10 of the molar value.
assayMetric: pKd

Cc1ccccc1NS(=O)(=O)c1ccc(NC(=O)c2ccc3c(c2)NC(=O)C(C)S3)cc1 (stereo not drawn): 4.85

[1] CN(Cc1ccccc1)c1ccc(CNc2ccc3cncnc3c2)cc1
[2] Cc1cccc(NS(=O)(=O)c2cccc(NC(=O)c3ccc4c(c3)NC(=O)C(C)S4)c2)c1 (stereo not drawn)
Q: Would you let me know which has the greater pKd value, 1 or 2 ? Answer with the label corresponding to your selection.
Result: 2

---

test system: Jeko-1 (SOX11+); assay: Cell viability assay (CellTiter-Blue resazurin reduction); type: cell-based; details: Homo sapiens, JeKo-1, 72 h, JeKo-1 cells, 20 μM compound, normalized to 0.2% DMSO
assayMetric: viability at 20 µM (%)
Report only the number, with the unit % understood.

Examples with answers:
CC1Sc2ccc(C(=O)Nc3ccc(S(=O)(=O)Nc4ccccc4F)cc3)cc2NC1=O (stereo not drawn): 21.2
CC1Sc2ccc(C(=O)Nc3ccc(S(=O)(=O)Nc4cccnc4)cc3)cc2NC1=O (stereo not drawn): 92
Cc1ccc(NC(=O)c2ccc3c(c2)N(C)C(=O)CS3)cc1S(=O)(=O)N1CCCCC1: 3.42
CC1Sc2ccc(C(=O)Nc3ccc(S(=O)(=O)N(C)C)cc3)cc2NC1=O (stereo not drawn): 19.6

For record `Nc1cc(C(=O)Nc2ccc(S(=O)(=O)Nc3ccccc3)cc2)ccc1/C=C\C(=O)O` the listed viability at 20 µM is 12.4

For record CC1Sc2ccc(C(=O)Nc3cccc(S(=O)(=O)Nc4ccncc4)c3)cc2NC1=O (stereo not drawn) the listed viability at 20 µM is 95.8

For record CC1Sc2ccc(C(=O)Nc3ccc(S(=O)(=O)NC4CCCC4)cc3)cc2NC1=O (stereo not drawn) the listed viability at 20 µM is 36.3

For record CC1Sc2ccc(C(=O)Nc3ccc(S(=O)(=O)NC4CCCCC4)cc3)cc2NC1=O (stereo not drawn) the listed viability at 20 µM is 30.4

For record `O=C(Nc1cccc(S(=O)(=O)N2CCCC2)c1)c1ccc2c(c1)CCCS2` the listed viability at 20 µM is 27.1

---

test system: Jeko-1 (SOX11+); test: Cell viability assay (CellTiter-Blue resazurin reduction); format: cell-based; details: Homo sapiens, JeKo-1, 72 h, JeKo-1 cells, 20 μM compound, normalized to 0.2% DMSO
Measured viability at 20 µM accompanies every entry in the list below.
Report only the number, with the unit % understood.

CC1Sc2ccc(C(=O)Nc3cccc(S(=O)(=O)N4CCCC4)c3)cc2N(C)C1=O (centres unmarked): 13.9
CCN(CC)S(=O)(=O)c1ccc(NC(=O)c2ccc3c(c2)NC(=O)C(C)S3)cc1 (centres unmarked): 0.6
CC1Sc2ccc(C(=O)Nc3ccc(S(=O)(=O)NC4CC4)cc3)cc2NC1=O (centres unmarked): 14.9
CC1Sc2ccc(C(=O)Nc3ccc(S(=O)(=O)Nc4ccncn4)cc3)cc2NC1=O (centres unmarked): 106

Next molecule, please.
For record `O=C(Nc1ccc(OCc2ccccc2)cc1)c1ccc2snnc2c1` the listed viability at 20 µM is 93.6

---

Tested on: Jeko-1 (SOX11+)
Test: Cell viability assay (CellTiter-Blue resazurin reduction)
Format: cell-based
Settings: Homo sapiens, JeKo-1, 72 h, JeKo-1 cells, 20 μM compound, normalized to 0.2% DMSO
Description: Cell viability was determined by a fluorometric resazurin reduction method (CellTiter-Blue; Promega, Madison, Wis.) following the manufacturer's instructions. […] Cells were incubated for 72 hours. […] The number of viable cells in each treated well was calculated, based on the linear least squares regression of the standard curve (OD vs. cell concentration). […] The average and mean standard deviation were calculated from three separate experiments. […]
assayMetric: viability at 20 µM (%)
Report only the number, with the unit % understood.

CC1Sc2ccc(C(=O)Nc3ccc(S(=O)(=O)Nc4cccc(F)c4)cc3)cc2NC1=O (stereo not shown): 28.2
CN(c1ccccc1)S(=O)(=O)c1ccc(NC(=O)c2ccc3nncn3c2)cc1: 126
CCC1Sc2ccc(C(=O)Nc3ccc(S(=O)(=O)Nc4ccccc4)cc3)cc2NC1=O (stereo not shown): 36.7

Next molecule, please.
For record CC1Sc2ccc(NC(=O)c3ccc(S(=O)(=O)Nc4ccccc4)c(F)c3)cc2NC1=O (stereo not shown) the listed viability at 20 µM is 75.8

---

Measured viability at 20 µM accompanies every entry in the list below.
tested on: Jeko-1 (SOX11+); experiment: Cell viability assay (CellTiter-Blue resazurin reduction); type: cell-based; conditions: Homo sapiens, JeKo-1, 72 h, JeKo-1 cells, 20 μM compound, normalized to 0.2% DMSO
Report only the number, with the unit % understood.

Examples with answers:
CC1Sc2ccc(C(=O)Nc3ccc(S(=O)(=O)Nc4ccc(C(F)(F)F)cc4)cc3)cc2NC1=O (centres unmarked): 63.6
CC1Sc2ccc(C(=O)Nc3ccc(S(=O)(=O)Nc4ccccc4)s3)cc2NC1=O (centres unmarked): 57.4
CC1Sc2ccc(C(=O)Nc3cccc(S(=O)(=O)Nc4ccccc4)c3)cc2NC1=O (centres unmarked): 2.81

For record `CN(c1ccccc1)S(=O)(=O)c1cccc(NC(=O)c2ccc3snnc3c2)c1` the listed viability at 20 µM is 10.6

For record CC1Sc2ccc(C(=O)Nc3cccc(OCc4ccccc4)c3)cc2NC1=O (centres unmarked) the listed viability at 20 µM is 107

For record `c1ccc(COc2ccc(CNc3ccc4cnccc4c3)cc2)cc1` the listed viability at 20 µM is 1.2

For record `O=C(Nc1ccc(S(=O)(=O)Nc2ccccc2)cc1)c1ccc2nn[nH]c2c1` the listed viability at 20 µM is 5.75

---

biological target: (His)6-SOX11-DBD protein (Homo sapiens); construct: Recombinant (His)6-SOX11-DBD protein was immobilized; assay: Surface Plasmon Resonance (SPR) assay; settings: immobilized recombinant (His)6-SOX11-DBD, 25° C., compounds 5-40 μM, mean of three experiments
assayMetric: Kd (µM)

Examples with answers:
Cc1cccc(COc2ccc(CNc3ccc4cncnc4c3)cc2)c1: 7.63
CC1Sc2ccc(C(=O)Nc3ccc(S(=O)(=O)NC4CCCCC4)cc3)cc2NC1=O (stereo not drawn): 19
CC1Sc2ccc(C(=O)Nc3ccc(S(=O)(=O)Nc4ccc(N)cc4)cc3)cc2NC1=O (stereo not drawn): 19.6
CC1Sc2ccc(C(=O)Nc3ccc(CNc4cccc(S(=O)(=O)F)c4)cc3)cc2NC1=O (stereo not drawn): 1.65

[I] c1ccc(COc2cccc(CNc3ccc4cnccc4c3)c2)cc1
[II] CC1Sc2ccc(C(=O)Nc3ccc(S(=O)(=O)Nc4ccc(F)cc4)cc3)cc2NC1=O (stereo not drawn)
[III] CC1Sc2ccc(C(=O)Nc3ccc(S(=O)(=O)Nc4ccccc4)cc3)cc2N(C)C1=O (stereo not drawn)
[IV] CN1C(=O)CSc2ccc(C(=O)Nc3ccc(S(C)(=O)=O)cc3)cc21
[V] CCN(CC)S(=O)(=O)c1cccc(NC(=O)c2ccc3c(c2)NC(=O)C(C)S3)c1 (stereo not drawn)
Q: Sort the 5 compounds by Kd; largest first, smallest last. # answer = labels listed in requested order
Result: IV, I, V, II, III
(IV: 82.1 µM, I: 47.8 µM, V: 31.2 µM, II: 15.9 µM, III: 1.95 µM)

The measured values listed here are drawn from patent US20230242496A1.
